- Target or test system: UniProt:P09382
- Sequence (P09382 whole entry, species assumed): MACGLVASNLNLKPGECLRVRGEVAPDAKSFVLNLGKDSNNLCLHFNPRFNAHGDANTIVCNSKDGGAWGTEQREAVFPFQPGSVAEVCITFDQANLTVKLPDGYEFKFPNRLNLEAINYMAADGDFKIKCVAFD
pKd: −log10 of the molar value.
Values of pKd greater than or equal to 5 map to true; values below map to false.

[
  {
    "Compound": "O=c1oc2cc(Cl)ccc2cc1CO[C@H]1[C@@H](O)[C@@H](CO)O[C@@H](S[C@@H]2O[C@H](CO)[C@H](O)[C@H](OCc3cc4ccc(Cl)cc4oc3=O)[C@H]2O)[C@@H]1O",
    "Qualitative label": "false"
  },
  {
    "Compound": "O=c1oc2ccc(OC(F)(F)F)cc2cc1COC1C(O)[C@H](S[C@@H]2OC(CO)[C@H](O)C(OCc3cc4cc(OC(F)(F)F)ccc4oc3=O)C2O)OC(CO)[C@@H]1O (stereo partly drawn)",
    "Qualitative label": "false"
  },
  {
    "Compound": "O=c1oc2ccc(F)cc2cc1CO[C@H]1[C@@H](O)[C@@H](CO)O[C@@H](S[C@@H]2O[C@H](CO)[C@H](O)[C@H](OCc3cc4cc(F)ccc4oc3=O)[C@H]2O)[C@@H]1O",
    "Qualitative label": "true"
  },
  {
    "Compound": "O=c1oc2ccc3ccccc3c2cc1CO[C@H]1[C@@H](O)[C@@H](CO)O[C@@H](S[C@@H]2O[C@H](CO)[C@H](O)[C@H](OCc3cc4c(ccc5ccccc54)oc3=O)[C@H]2O)[C@@H]1O",
    "Qualitative label": "false"
  },
  {
    "Compound": "O=c1oc2cc(F)c(F)cc2cc1COC1C(O)[C@H](S[C@@H]2OC(CO)[C@H](O)C(OCc3cc4cc(F)c(F)cc4oc3=O)C2O)OC(CO)[C@@H]1O (stereo partly drawn)",
    "Qualitative label": "true"
  },
  {
    "Compound": "O=c1oc2ccc(F)c(F)c2cc1CO[C@H]1[C@@H](O)[C@@H](CO)O[C@@H](S[C@@H]2O[C@H](CO)[C@H](O)[C@H](OCc3cc4c(F)c(F)ccc4oc3=O)[C@H]2O)[C@@H]1O",
    "Qualitative label": "true"
  },
  {
    "Compound": "Cc1ccc2cc(COC3C(O)[C@H](S[C@@H]4OC(CO)[C@H](O)C(OCc5cc6ccc(C)cc6oc5=O)C4O)OC(CO)[C@@H]3O)c(=O)oc2c1 (stereo partly drawn)",
    "Qualitative label": "false"
  },
  {
    "Compound": "O=C(OC1C(O)[C@H](S[C@@H]2OC(CO)[C@H](O)C(OC(=O)c3ccc4ccccc4c3)C2O)OC(CO)[C@@H]1O)c1ccc2ccccc2c1 (stereo partly drawn) [Compound 35, reference compound]",
    "Qualitative label": "false"
  },
  {
    "Compound": "O=c1oc2ccc(O)cc2cc1COC1C(O)[C@H](S[C@@H]2OC(CO)[C@H](O)C(OCc3cc4cc(O)ccc4oc3=O)C2O)OC(CO)[C@@H]1O (stereo partly drawn)",
    "Qualitative label": "false"
  }
]
